Where do the numbers come from? From patent US7452678B2.

test system: THLE-5B-3A4; assay: LC/LC/MS/MS peptide hits of biomarker polypeptides in conditioned media of treated hepatocytes; format: cell-based, human; conditions: 20 hr, concentrations of Table 1
Assay Metric: peptide hits BMS-PTX-447
The response must contain the number and no unit.

Record excerpt, results attached:
Molecule | Experimental Value
CCO[C@@H](Cc1ccc(OCCc2ccc(OS(C)(=O)=O)cc2)cc1)C(=O)O [Tesaglitazar] | 6
Cc1c(C)c2c(c(C)c1O)CCC(C)(COc1ccc(CC3SC(=O)NC3=O)cc1)O2 (stereo not shown) [Troglitazone] | 33

Lookup result for Cc1oc(-c2ccccc2)nc1CCOc1ccc(C[C@H](Nc2ccccc2C(=O)c2ccccc2)C(=O)O)cc1 [Farglitazar] ; measured peptide hits BMS-PTX-447: 54

Lookup result for CC1(COc2ccc(CC3SC(=O)NC3=O)cc2)CCCCC1 (stereo not shown) [Ciglitazone] ; measured peptide hits BMS-PTX-447: 82
